In this section, each of the variants is paired with its reported normalized RNA/DNA level with ligand (log10).
B1: library; a variant is named by its letters at N, in order (parent)
chain: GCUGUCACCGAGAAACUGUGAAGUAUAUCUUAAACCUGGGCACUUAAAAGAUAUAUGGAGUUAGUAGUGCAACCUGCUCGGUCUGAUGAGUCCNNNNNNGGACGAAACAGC

variants of: B1; assay: normalized RNA/DNA level with ligand (relative to sTRSVctl = 100) (log10 (% of sTRSVctl)); HEK293T; ligand: cyclic di-GMP (c-di-GMP-II aptamer); ligand concentration (+) RNA-Seq: 1 mM; higher = less ribozyme self-cleavage, higher mRNA level; conditions: reporter: mCherry (pCS4076), ligand present: yes
measured endpoint: normalized RNA/DNA level with ligand (log10)

> print(dat)
    change  measured.result
 1  CGAAAU             1.63
 2  GCAAGC             1.81
 3  UACAGG             1.82
 4  CCAUUU              1.7
 5  GAGAUC             1.81
 6  CCCGUC             1.87
 7  GAGUGG              1.9
 8  CUGCGG             1.84
 9  CCGUAA             1.57
10  GGUGUA             1.76
11  UGGUAC             1.83
12  CUGGAA             1.41
13  AAAUCG             1.73
14  UAAUAA              1.8
15  CUUCUU             1.75
16  UUGGCA             1.83
17  AUGGAC             1.76
18  CGGAGG             1.82
19  GCCAGU             1.82
20  AAAAUU             1.76
21  ACAGUA             1.51
22  CAGGAG             1.79
